Sourced from paper PMC11855827

system: C. elegans; experiment: microbe, parasite or virus in culture; details: Caenorhabditis elegans, 0 h, read-out: Percentage of motility inhibition 0 h, Table S2, C. elegans SS assay, 110 μM, 0 h, averages of 4 data points
METRIC: inhibition at 110 µM (%)
Your answer should be a plain number; it is taken to be in %.

Notebook: pull reported inhibition at 110 µM for C. elegans, entry CC(C)=C[C@H]1C[C@](C)(O)[C@@H]2[C@H]3CC[C@@H]4[C@@]5(C)CC[C@H](O[C@@H]6O[C@H](CO)[C@@H](O)[C@H](O[C@@H]7O[C@H](CO)[C@@H](O)[C@H](O)[C@H]7O)[C@H]6O[C@@H]6O[C@@H](CO)[C@H](O)[C@H]6O)C(C)(C)[C@@H]5CC[C@@]4(C)[C@@]34CO[C@@]2(C4)O1 [Bacoside A3]
3

Request: C=C1C[C@@]23CC[C@H]4[C@@](C)(CCC[C@@]4(C)C(=O)O[C@@H]4O[C@H](CO)[C@@H](O)[C@H](O)[C@H]4O)[C@@H]2CC[C@]1(O[C@@H]1O[C@H](CO)[C@@H](O)[C@H](O)[C@H]1O[C@@H]1O[C@@H](C)[C@H](O)[C@@H](O)[C@H]1O)C3 [Dulcoside A]
0

Request: O=c1c(O)c(-c2ccc(O)c(O)c2)oc2cc(O)ccc12 [Fisetin]
0

Request: COC[C@@]12CC[C@H](OC)[C@]34C(C([C@H](OC)[C@H]13)[C@]1(OC(C)=O)[C@H]3[C@@H](OC(=O)c5ccccc5)[C@](O)(C[C@H]34)[C@@H](OC)[C@@H]1O)N(C)C2 [Hypaconitine]
0

Request: CNC1CCCN(c2c(F)cc3c(=O)c(C(=O)O)cn(C4CC4)c3c2OC)C1 (centres unmarked) [Balofloxacin]
0

###

Test: Spheroids toxicity assay (alamarBlue)
Type: cell-based
Settings: human, pH 7.2, CC50 HepG2 spheroids / EC50 H. contortus; read-out: Selective Index (SI) CC50/EC50 Sph/H. c
Experimental: HepG2 cells were cultured as a monolayer under standard conditions, using DMEM/F12 medium supplemented with L-glutamine and 15 mM HEPES buffer (pH 7.2) supplemented with 10% fetal bovine serum (FBS) and antibiotic mixture (100 U/mL penicillin and 100 µg/mL streptomycin) at 37 °C and 5% CO2, according to previous published protocols. Cells were detached from the culture flask using 0.25% trypsin solution and then centrifuged at 500× g for 6.5 min. […]
METRIC: selectivity ratio

Request the reported selectivity ratio associated with CCc1nn(C)c(C(=O)NCc2ccc(Oc3ccc(C)cc3)cc2)c1Cl [Tolfenpyrad]
> 33.3

###

system: C. elegans; conditions: Table S2, C. elegans SS assay, 110 μM, 0 h, averages of 4 data points
For each record, write down the corresponding Percentage of motility inhibition 0 h.
Your answer should be a plain number; it is taken to be in %.

Request the reported Percentage of motility inhibition 0 h associated with CC1(O)CCC(C(C)(C)O)CC1.O (centres unmarked) [Terpin (hydrate)]
9

Request: CC1(C)S[C@@H]2[C@H](NC(=O)[C@H](N)c3ccc(O)cc3)C(=O)N2[C@H]1C(=O)[O-].[Na+] [Amoxicillin (sodium)]
29

Request: O=C([O-])c1ccc[n+]([C@@H]2O[C@H](CO)[C@@H](O)[C@H]2O)c1 [Nicotinic acid riboside]
5

Request: c1ccc2c(-c3nccs3)c[nH]c2c1
50

Request: CSCCC(=O)O
9

Request: Cc1cc(NS(=O)(=O)c2ccc(N)cc2)nc(C)n1
26

Request: C=CC1CNC(=S)O1 (centres unmarked) [Epigoitrin]
6

Request: C[C@@H]1CC[C@]2(C(=O)O)CC[C@]3(C)C(=CC[C@@H]4[C@@]5(C)CC[C@H](O[C@@H]6OC[C@H](O)[C@H](O)[C@H]6O)C(C)(C)[C@@H]5CC[C@]43C)[C@@H]2[C@]1(C)O [Ziyuglycoside II]
11
